Molecular target: T1, human 4-1BB-His protein (human, UniProt Q07011 24-186)
T1 construct: Recombinant His-tagged protein; also called human 4-1BB-his tag; recombinant 4-1BB protein; not shown: His tag
Assay: SPR, Biacore T200, antibody captured on Protein A chip, human 4-1BB-His as analyte
endpointLabel: kon (M⁻¹ s⁻¹)
Report only the number, with the unit M⁻¹ s⁻¹ understood.

# count of solved cases: 4
- binder: "B164 chimeric mAb (VHH, Alpaca VHH tested as 'chimeric mAb') VHH: EVQLVESGGGLVQAGGSLRLSCAASGSIFSYMFWYRQPQGKQREYVAHITSGGRTNYADSVTGRFTISRGNNDNTMYLQMNNLKPEDTAVYYCAADDAVYTDRTYWGQGTQVTVSS"
  valueUnit: "M⁻¹ s⁻¹"
  val: "1.04e+06"
- binder: "B31 chimeric mAb (VHH, Alpaca VHH tested as 'chimeric mAb' expressed in 293F cells, purified by protein G, detected with anti-human IgG and captured on Protein A; also called B31 chimeric antibody) VHH: QVQLVESGGGLVQAGGSLRLSCAASGDIFSIMFWYRQPQGKQREYVAHITSNGRTNYADSVTGRFTISRGNNDNTMYLQMDNLKPQDTAVYYCAADDATNTRTYWGQGTQVTVSS"
  valueUnit: "M⁻¹ s⁻¹"
  val: "1.52e+06"
- binder: "B210 chimeric mAb (VHH, Alpaca VHH tested as 'chimeric mAb') VHH: EVQLVESGGGLVQPGGSLRLSCAASGLSLDYYAIGWFRQAPGKEREGVSCISSSGRSTNYADSVKGRFTISRDNAKNTVYLQMNSLKPEDTADYYCATDTTTRCPIWSNYVESDYWGQGTQVTVSS"
  valueUnit: "M⁻¹ s⁻¹"
  val: 38900
- binder: "B125 chimeric mAb (VHH, Alpaca VHH tested as 'chimeric mAb') VHH: QVQLVESGGGLVQPGGSLRLSCAASGFAFSDYAIGWFRQAPGKEREGVSCISSSDGSTYYADSVKGRFTISRDNAKNTVYLQMNSLKPEDTAVYYCATDTTTRCPIWSYYVESDYWGQGTQVTVSS"
  valueUnit: "M⁻¹ s⁻¹"
  val: 390000

Now look at this entry.
In: What value of measured kon is listed for B16 chimeric mAb (VHH, Alpaca VHH tested as 'chimeric mAb') VHH: QVQLVESGGGLVQPGGSLRLSCAASGFTLDYYAIGWFRQAPGKEREGVSCISSSDGSTYYADSVKGRFTISRDNAKNTVYLQMNSLKPEDTAVYYCATDTTTRCPIWSYYVESDYWGQGTQVTVSS ?
Out: 343000
